Listing of recorded Activity by entry.
Tested on: Aryl hydrocarbon receptor (Cavia porcellus)
protocol: Activation of AhR expressed in guinea pig cytosolic fractions over expressed with XRE by ELISA based Ah-immunoassay relative to TCDD
Hey, just send me the number, nothing else.

Here are 8 compounds together with their reported answers.
>>> observed_measurement("C1=Cc2sc3ccccc3c2Sc2c1sc1ccccc21")
0.055
>>> observed_measurement("Cc1c2c3ccccc3nc-2sc2[nH]c3ccccc3c12")
0.36
>>> observed_measurement("CC1(C)c2c([nH]c3ccccc23)Sc2[nH]c3ccccc3c21")
0.0033
>>> observed_measurement("Cc1c2c3ccccc3nc-2[se]c2[nH]c3ccccc3c12")
0.38
>>> observed_measurement("COc1ccc2nc3[se]c4[nH]c5ccc(OC)cc5c4cc-3c2c1")
0.009
>>> observed_measurement("C1=Cc2sc3ccccc3c2[Se]c2c1sc1ccccc21")
0.018
>>> observed_measurement("c1ccc2c3cc4c([nH]c5ccccc54)sc-3nc2c1")
0.29
>>> observed_measurement("c1ccc2c3cc4c([nH]c5ccccc54)[se]c-3nc2c1")
0.32

Looking up `c1ccc2c3cc4[nH]c5ccccc5c4sc-3nc2c1` , I see its Activity listed as 0.132

Looking up `c1ccc2c(c1)[nH]c1cc3c(cc12)[nH]c1ccccc13` , I see its Activity listed as 1.48

Looking up `O=c1c2c([nH]c3ccccc32)sc2[nH]c3ccccc3c12` , I see its Activity listed as 0.039

Looking up `COc1ccc2nc3[se]c4[nH]c5ccc(OC)cc5c4c(C)c-3c2c1` , I see its Activity listed as 0.013
